Molecular target: T1, His-tagged MUC1 cytoplasmic domain (UniProt P15941 1182-1255)
T1 sequence (looked up): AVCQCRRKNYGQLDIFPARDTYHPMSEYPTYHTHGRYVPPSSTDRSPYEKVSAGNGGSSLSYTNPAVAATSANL
Assay: SPR
propertyMeasured: pKd
Interpret pKd as the negative base-10 log of the concentration measured in mol/L.

For record CQCRRKNYGQLDIFP (poly D-arginine transduction domain (D-residues)) [GO-201] the listed pKd is 7.52
